Items are presented alongside their recorded Percent Effect.
Tested on: Wolbachia pipientis
assay.method.text: Anti-Wolbachia Cell-Based Screen
Format: functional
Design: scale not given: in the data most compounds retested in dose-response had high values
measurement.conditions: 5 µM
Hit rate of the full screen: of about 48,000 compounds, about 13,000 (27%) showed an effect of 50% or more. This is one part of the list.
Entry rule: numbers only, all in %.

Known Percent Effect results, listed for orientation:
molecule	target.entity	Percent Effect [%]
NC(=O)CC1CCN(C(=O)NCc2ccccc2-n2cccn2)CC1	Wolbachia pipientis	4.172
COC1CN(C(=O)NCC(N)=O)CCC(=O)N(C)c2ccccc21 (stereo unspecified)	Wolbachia pipientis	111.8

Output reported Percent Effect of the molecule CCOC(=O)N1CCN(C(=O)C2Cc3ccccc3CN2C)CC1 (stereo unspecified) on Wolbachia pipientis. 6.849

Output reported Percent Effect of the molecule CN1CCC(CNC(=O)c2cccc(NC(N)=O)c2)c2ccccc21 (stereo unspecified) on Wolbachia pipientis. -10.01

Output reported Percent Effect of the molecule "Cc1nccn1CCN(C)c1nc(-c2ccc(Cl)cc2)nc2c1CNC2" on Wolbachia pipientis. -50.51

Output reported Percent Effect of the molecule "CN1C(=O)CO[C@H](c2ccc(NC(=O)c3cccc(F)c3)cc2)[C@H]1CO" on Wolbachia pipientis. 11.75

Output reported Percent Effect of the molecule "CC(C)C(=O)N1CCC(n2nc(-c3ccco3)ccc2=O)CC1" on Wolbachia pipientis. 101.9
